B1: Spectrin alpha chain, erythrocytic 1, residues 979 to 1036; numbered along this chain, P02549 (parent)
chain: EQRVMALYDFQARSPREVTMKKGDVLTLLSSINKDWWKVEAADHQGIVPAVYVRRLAH

variants of: B1; assay: abundance fitness (aPCA) (normalised: wild type 0, dead -1); higher = more abundant; growth selection in yeast, the domain comes from the species named; conditions: Homo sapiens
Given measured abundance fitness, output TRUE if it is greater than or equal to -0.5 and FALSE if not.

I'd appreciate it if you could say whether EQRVMALYDFQARSPREVTMKKGDVLTLLSSINKDWWKVEIADHQGIVPAVYVRRLAH has abundance fitness at least equal to -0.5. TRUE

I'd appreciate it if you could say whether EQRVMALYDFQARSPREVTMKKGDVLTLLSSINKEWWKVEAADHQGIVPAVYVRRLAH has abundance fitness at least equal to -0.5. TRUE

I'd appreciate it if you could say whether EQRVMALYDFQARSPREVTMKKGDVLTLLSSINKRWWKVEAADHQGIVPAVYVRRLAH has abundance fitness at least equal to -0.5. TRUE

I'd appreciate it if you could say whether EQRVMALYDFQARSTREVTMKKGDVLTLLSSINKDWWKVEAADHQGIVPAVYVRRLAH has abundance fitness at least equal to -0.5. TRUE

I'd appreciate it if you could say whether EQRVMALYDFQARSPREVTMKKGDVLTLMSSINKDWWKVEAADHQGIVPAVYVRRLAH has abundance fitness at least equal to -0.5. FALSE

I'd appreciate it if you could say whether EQRGMALYDFQARSPREVTMKKGDVLTLLSSINKDWWKVEAADHQGIVPAVYVRRLAH has abundance fitness at least equal to -0.5. FALSE

I'd appreciate it if you could say whether EQRVMALYDFQARSPREVTMKKGDVLTLLSSINKDWWKVEKADHQGIVPAVYVRRLAH has abundance fitness at least equal to -0.5. TRUE

I'd appreciate it if you could say whether EQRVMALYDFQARSPREVTMKKGDVLTLLSSINKDWWKVEAADHQGIVEAVYVRRLAH has abundance fitness at least equal to -0.5. FALSE

I'd appreciate it if you could say whether EQRVMALYDFQARSPREVTMKKGDVLTLKSSINKDWWKVEAADHQGIVPAVYVRRLAH has abundance fitness at least equal to -0.5. TRUE

I'd appreciate it if you could say whether EQRVMALYDFQARSPREVTMKKGDVLTLLSSINKDWWKVEAADPQGIVPAVYVRRLAH has abundance fitness at least equal to -0.5. FALSE

I'd appreciate it if you could say whether EQRVMASYDFQARSPREVTMKKGDVLTLLSSINKDWWKVEAADHQGIVPAVYVRRLAH has abundance fitness at least equal to -0.5. FALSE

I'd appreciate it if you could say whether EQRVMALYDFQARSPREVTMKKGDVLTLLSSINKDWWKVEASDHQGIVPAVYVRRLAH has abundance fitness at least equal to -0.5. TRUE

I'd appreciate it if you could say whether EQRVMALYDFQKRSPREVTMKKGDVLTLLSSINKDWWKVEAADHQGIVPAVYVRRLAH has abundance fitness at least equal to -0.5. FALSE

I'd appreciate it if you could say whether EQRVMALYDFQARSPREVTMKKGDVLTLLSSINADWWKVEAADHQGIVPAVYVRRLAH has abundance fitness at least equal to -0.5. TRUE

I'd appreciate it if you could say whether EQRVMAHYDFQARSPREVTMKKGDVLTLLSSINKDWWKVEAADHQGIVPAVYVRRLAH has abundance fitness at least equal to -0.5. FALSE

I'd appreciate it if you could say whether EQRVMALYDRQARSPREVTMKKGDVLTLLSSINKDWWKVEAADHQGIVPAVYVRRLAH has abundance fitness at least equal to -0.5. TRUE

I'd appreciate it if you could say whether EQRVMALYDFQARSPREVTMKKGDVLTLLSSINKDWWKVEAADHQGIVKAVYVRRLAH has abundance fitness at least equal to -0.5. TRUE

I'd appreciate it if you could say whether EQRVMALYDFQARSPREVTMKKGDVLTLLSSINKDWWKEEAADHQGIVPAVYVRRLAH has abundance fitness at least equal to -0.5. TRUE

I'd appreciate it if you could say whether EQRVMALYDFQARSPREVTMKKGDVLTLLSSINKDWWKVRAADHQGIVPAVYVRRLAH has abundance fitness at least equal to -0.5. TRUE

I'd appreciate it if you could say whether EQRVMALYDFQARSPREVTMKKGDVLTLLSSISKDWWKVEAADHQGIVPAVYVRRLAH has abundance fitness at least equal to -0.5. TRUE

I'd appreciate it if you could say whether EQRVMALYDFQARSPREVTMKKGDVLTLLSSINKDWWKVEAADHQGIVPAVYCRRLAH has abundance fitness at least equal to -0.5. TRUE

I'd appreciate it if you could say whether EQRVMALYDFQARSPREVTMKKGDVLTLLSSINKDWWKVEAADHQGIVPAVVVRRLAH has abundance fitness at least equal to -0.5. FALSE
